Species: Mus musculus
test name: animal or person
experimental parameters: PC-3, po, 2 h, read-out: INH
Note to self: values exactly at 80% are YES. So inhibition in vivo at 100 mg/kg at or above 80% is YES, below is NO.

Here's what some known entries look like.
CC(C)(O)c1ccc(-c2cnc3c(n2)N(CC2CCOCC2)CC(=O)N3)cn1    YES
CO[C@H]1CC[C@H](N2CC(=O)Nc3ncc(-c4ccc(C(C)(C)O)nc4)nc32)CC1    NO
CO[C@H]1CC[C@@H](N2CC(=O)Nc3ncc(-c4ccc(C(C)(C)O)nc4)nc32)CC1    NO

Quick check: does CC(C)(O)c1ccc(-c2cnc3c(n2)N(CCC2CCOCC2)CC(=O)N3)cn1 have inhibition in vivo at 100 mg/kg greater than or equal to 80%? NO

====

Reported values of remaining at 1 h for individual entries
test name: Metabolic stability in rat S9 fraction assessed as compound remaining measured at 60 mins
Format: ADME
experimental parameters: read-out: Stability
Numeric answer only, unit % assumed.

As a guide, the following entries are already answered.
CO[C@H]1CC[C@@H](CN2CC(=O)Nc3ncc(-c4ccc(C(C)(C)O)nc4)nc32)CC1    39
CO[C@H]1CC[C@H](N2CC(=O)Nc3ncc(-c4ccc(C(C)(C)O)nc4)nc32)CC1    94
O=C1CN(CCC2CCOCC2)c2nc(-c3ccc(-c4nc[nH]n4)cc3)cnc2N1    61
COCCN1C(=O)CNc2ncc(-c3ccc(C(C)(C)O)nc3)nc21    89
CC(C)(O)c1ccc(-c2cnc3c(n2)N(CCC2CCOCC2)C(=O)CN3)cn1    73
CC(C)(O)c1ccc(-c2cnc3[nH]c(=O)n(CCC4CCOCC4)c3n2)cn1    91
O=C1CNc2ncc(-c3ccc(-c4ncn[nH]4)cc3)nc2N1CCC1CCOCC1    48
CO[C@H]1CC[C@H](CN2CC(=O)Nc3ncc(-c4ccc(C(C)(C)O)nc4)nc32)CC1    77

Moving on to the next compound.
Record request: remaining at 1 h value, item CO[C@H]1CC[C@H](CN2C(=O)CNc3ncc(-c4ccc(C(C)(C)O)nc4)nc32)CC1 55

====

test name: Oral bioavailability in rat at 5 mg/kg
Format: ADME, organism-based
experimental parameters: in vivo
Consider the following molecules and their measured bioavailability readings.
Only the number, expressed in %, is required.

Reference set (4 entries):
CC(C)(O)c1ccc(-c2cnc3c(n2)N(CCC2CCOCC2)C(=O)CN3)cn1    58
CO[C@H]1CC[C@H](N2C(=O)CNc3ncc(-c4ccc(C(C)(C)O)nc4)nc32)CC1 [ONATASERTIB]    59
CC(C)(O)c1ccc(-c2cnc3c(n2)N(CCC2CCOCC2)CC(=O)N3)cn1    100
CC(C)(O)c1ccc(-c2cnc3[nH]c(=O)n(CCC4CCOCC4)c3n2)cn1    43

Consider now this further molecule.
What value of bioavailability has been recorded for this entry: CO[C@H]1CC[C@H](N2CC(=O)Nc3ncc(-c4ccc(C(C)(C)O)nc4)nc32)CC1 70

====

test name: Oral bioavailability in rat at 10 mg/kg
Assay type: ADME, organism-based
experimental parameters: in vivo
property measured: bioavailability (%)
// note: answer is a bare numeric in %

Given O=c1[nH]c2ncc(-c3ccc(-c4nc[nH]n4)cc3)nc2n1CCC1CCOCC1 , state its recorded bioavailability. 0.85

====

test name: AUC (0 to infinity) in rat at 5 mg/kg, po
Format: ADME, organism-based
Parameters: dose 5 mg/kg, time infinity, route oral
experimental parameters: in vivo
Decide using AUC(0-inf) alone. Strictly below 10 µM·h: true. Equal to or above 10 µM·h: false.

Worked examples, 4 compounds total:
CO[C@H]1CC[C@@H](N2CC(=O)Nc3ncc(-c4ccc(C(C)(C)O)nc4)nc32)CC1    false
CC(C)(O)c1ccc(-c2cnc3c(n2)N([C@H]2CC[C@H](O)CC2)C(=O)CN3)cn1    true
CC(C)(O)c1ccc(-c2cnc3c(n2)N(CCC2CCOCC2)C(=O)CN3)cn1    false
CO[C@H]1CC[C@H](N2CC(=O)Nc3ncc(-c4ccc(C(C)(C)O)nc4)nc32)CC1    false

For CO[C@H]1CC[C@H](N2C(=O)CNc3ncc(-c4ccc(C(C)(C)O)nc4)nc32)CC1 , is the recorded AUC(0-inf) below the cut-off of 10 µM·h? false

Same question for CC(C)(O)c1ccc(-c2cnc3[nH]c(=O)n(CCC4CCOCC4)c3n2)cn1 please. true

Also need CC(C)(O)c1ccc(-c2cnc3c(n2)N(CCC2CCOCC2)CC(=O)N3)cn1 , thanks. false

Request: COCCN1C(=O)CNc2ncc(-c3ccc(C(C)(C)O)nc3)nc21 false

Also, CO[C@H]1CC[C@H](CN2CC(=O)Nc3ncc(-c4ccc(C(C)(C)O)nc4)nc32)CC1 please. true

====

Catalogue of inhibition in vivo at 100 mg/kg readings, one per entry.
Species: Mus musculus
test name: animal or person
experimental parameters: PC-3, po, 24 h, read-out: INH
# number only, unit % dropped from output

Please review the following examples before continuing.
CO[C@H]1CC[C@H](CN2CC(=O)Nc3ncc(-c4ccc(C(C)(C)O)nc4)nc32)CC1    0
CC(C)(O)c1ccc(-c2cnc3c(n2)N(CCC2CCOCC2)C(=O)CN3)cn1    69
CC(C)(O)c1ccc(-c2cnc3c(n2)N(CC2CCOCC2)CC(=O)N3)cn1    65
CO[C@H]1CC[C@@H](N2CC(=O)Nc3ncc(-c4ccc(C(C)(C)O)nc4)nc32)CC1    45
CC(C)(O)c1ccc(-c2cnc3c(n2)N(CC2CCOCC2)C(=O)CN3)cn1    80
COCCN1C(=O)CNc2ncc(-c3ccc(C(C)(C)O)nc3)nc21    77

# inhibition in vivo at 100 mg/kg lookup, item CO[C@H]1CC[C@H](N2CC(=O)Nc3ncc(-c4ccc(C(C)(C)O)nc4)nc32)CC1 61

// next record CC(C)(O)c1ccc(-c2cnc3c(n2)N(CCC2CCOCC2)CC(=O)N3)cn1 28

And then CO[C@H]1CC[C@H](N2C(=O)CNc3ncc(-c4ccc(C(C)(C)O)nc4)nc32)CC1 , what is it? 86

====

test name: Tmax in rat at 5 mg/kg, po
Format: ADME, organism-based
experimental parameters: in vivo
// reported Tmax for each item listed
Value expressed in min; do not type the unit.

Looking for the measured Tmax of CC(C)(O)c1ccc(-c2cnc3c(n2)N(CCC2CCOCC2)C(=O)CN3)cn1 , can you help? 36

Again, but for CC(C)(O)c1ccc(-c2cnc3[nH]c(=O)n(CCC4CCOCC4)c3n2)cn1 30

Do the same for CC(C)(O)c1ccc(-c2cnc3c(n2)N(CCC2CCOCC2)CC(=O)N3)cn1 please 90

====

Catalogue of inhibition in vivo at 100 mg/kg values
Species on record: Mus musculus
test name: animal or person
experimental parameters: PC-3, po, 8 h, read-out: INH

Some compounds with known inhibition in vivo at 100 mg/kg results, for comparison:
CC(C)(O)c1ccc(-c2cnc3c(n2)N(CC2CCOCC2)CC(=O)N3)cn1    71%
CO[C@H]1CC[C@@H](N2CC(=O)Nc3ncc(-c4ccc(C(C)(C)O)nc4)nc32)CC1    59%
CO[C@H]1CC[C@H](N2CC(=O)Nc3ncc(-c4ccc(C(C)(C)O)nc4)nc32)CC1    69%
CO[C@H]1CC[C@H](N2C(=O)CNc3ncc(-c4ccc(C(C)(C)O)nc4)nc32)CC1    82%

Name the reported inhibition in vivo at 100 mg/kg value associated with the compound COCCN1C(=O)CNc2ncc(-c3ccc(C(C)(C)O)nc3)nc21 84%

Same again, this time with CC(C)(O)c1ccc(-c2cnc3c(n2)N(CC2CCOCC2)C(=O)CN3)cn1 81%

Note, next up: CC(C)(O)c1ccc(-c2cnc3c(n2)N(CCC2CCOCC2)CC(=O)N3)cn1 67%

Consider next the compound CO[C@H]1CC[C@H](CN2CC(=O)Nc3ncc(-c4ccc(C(C)(C)O)nc4)nc32)CC1 in the same way. 55%

What about this compound? CC(C)(O)c1ccc(-c2cnc3c(n2)N(CCC2CCOCC2)C(=O)CN3)cn1 78%

====

test name: Cmax in rat at 10 mg/kg, po
Format: ADME, organism-based
Parameters: dose 10 mg/kg, route oral
experimental parameters: in vivo
property measured: Cmax (nM)
Report as a plain number; the unit nM is understood.

Sample O=c1[nH]c2ncc(-c3ccc(-c4nc[nH]n4)cc3)nc2n1CCC1CCOCC1 — what was its Cmax? 24

====

test name: Tmax in rat at 10 mg/kg, po
Format: ADME, organism-based
experimental parameters: in vivo
property measured: Tmax (h)
Please state the figure in h; there is no need to write the unit.

Which Tmax value belongs to O=c1[nH]c2ncc(-c3ccc(-c4nc[nH]n4)cc3)nc2n1CCC1CCOCC1 ? 1

These measurements were taken from ChEMBL document CHEMBL3585315.
